# experiment: Solubility of the compound in water after 24 hrs by HPLC method
# Assay type: physicochemical
reported metric: solubility at 24 h (µg/mL)

[I] COc1ccc(Nc2nc(N3CCC(NC(=O)c4ccc(C(=O)O)cc4)C3)nc3c2CCC3)cc1OC (configuration not stated)
[II] COc1cc(Nc2nc(N3CCC(NC(=O)c4ccc(C(=O)O)cn4)C3)nc3c2COC3)cc(OC)c1 (configuration not stated)
Hi, I'm comparing I with II and wondering which one has the bigger number for solubility at 24 h. Any idea? When you have decided, please share the label of that item.
II

* * *

# study system: Mast/stem cell growth factor receptor Kit (Homo sapiens, UniProt P10721)
# Sequence (P10721 whole entry): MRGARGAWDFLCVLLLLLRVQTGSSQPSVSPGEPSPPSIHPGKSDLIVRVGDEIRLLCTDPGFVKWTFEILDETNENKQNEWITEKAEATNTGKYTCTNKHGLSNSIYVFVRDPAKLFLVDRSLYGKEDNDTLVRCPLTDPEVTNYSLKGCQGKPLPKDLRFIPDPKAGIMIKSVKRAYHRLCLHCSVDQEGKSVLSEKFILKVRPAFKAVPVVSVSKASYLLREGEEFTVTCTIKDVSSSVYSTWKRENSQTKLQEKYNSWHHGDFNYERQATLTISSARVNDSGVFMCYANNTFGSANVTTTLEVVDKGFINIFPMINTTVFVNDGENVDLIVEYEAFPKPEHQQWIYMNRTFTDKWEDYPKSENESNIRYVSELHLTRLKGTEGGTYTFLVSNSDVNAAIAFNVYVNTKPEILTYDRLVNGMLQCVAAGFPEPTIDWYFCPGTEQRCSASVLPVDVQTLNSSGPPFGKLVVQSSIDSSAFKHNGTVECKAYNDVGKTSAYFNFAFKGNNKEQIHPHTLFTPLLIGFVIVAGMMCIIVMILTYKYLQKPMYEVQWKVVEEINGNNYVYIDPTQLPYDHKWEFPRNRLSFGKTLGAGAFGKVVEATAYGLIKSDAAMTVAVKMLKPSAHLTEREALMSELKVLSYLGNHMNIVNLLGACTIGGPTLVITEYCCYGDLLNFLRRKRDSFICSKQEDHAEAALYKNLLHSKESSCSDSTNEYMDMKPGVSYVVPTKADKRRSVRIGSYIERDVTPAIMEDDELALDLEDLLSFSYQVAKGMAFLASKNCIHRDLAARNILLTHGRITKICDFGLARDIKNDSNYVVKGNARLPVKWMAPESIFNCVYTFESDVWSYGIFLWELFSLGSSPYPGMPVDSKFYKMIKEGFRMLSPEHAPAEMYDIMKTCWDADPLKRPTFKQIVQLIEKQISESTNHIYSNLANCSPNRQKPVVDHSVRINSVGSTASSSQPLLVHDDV
reported metric: IC50

COCCCNc1nc(N2CCC(NC(=O)c3ccc(C(=O)O)cn3)C2)nc2c1COC2 (stereo unspecified)
> 50 µM
CCOCCCNc1nc(N2CCC(NC(=O)c3ccc(C(=O)O)cn3)C2)nc2c1COC2 (stereo unspecified)
> 50 µM
O=C(O)c1ccc(C(=O)NC2CCN(c3nc4c(c(Nc5ccc6c(c5)OCCO6)n3)COC4)C2)nc1 (stereo unspecified)
49.2 µM
CCCCCCNc1nc(N2CCC(NC(=O)c3ccc(C(=O)O)cn3)C2)nc2c1COC2 (stereo unspecified)
> 50 µM
CCCCCNc1nc(N2CCC(NC(=O)c3ccc(C(=O)O)cn3)C2)nc2c1COC2 (stereo unspecified)
> 50 µM

Here is the next item to consider.
Which IC50 value belongs to COc1ccc(Nc2nc(N3CCC(NC(=O)c4ccc(C(=O)O)cn4)C3)nc3c2COC3)cc1 (stereo unspecified) ?
> 50 µM

* * *

# experiment: Antiproliferative activity against rheumatoid arthritis patient-derived HFLS after 72 hrs by MTT assay
# Assay type: functional, Homo sapiens
Some compounds, each annotated with its measured IC50.
Quick reminder: number only, in µM, skip the unit.

CCc1ccc(Nc2nc(N3CCC(NC(=O)c4ccc(C(=O)O)cn4)C3)nc3c2COC3)cc1 (configuration not stated)
9.4
COc1cc(Nc2nc(N3CCC(NC(=O)c4ccc(C(=O)O)cn4)C3)nc3c2COC3)cc(OC)c1 (configuration not stated)
3.2
CCCCCCNc1nc(N2CCC(NC(=O)c3ccc(C(=O)O)cn3)C2)nc2c1COC2 (configuration not stated)
4
CCCCCCCNc1nc(N2CCC(NC(=O)c3ccc(C(=O)O)cn3)C2)nc2c1COC2 (configuration not stated)
8.1
O=C(O)c1ccc(C(=O)NC2CCN(c3nc4c(c(NC5CCCCC5)n3)COC4)C2)nc1 (configuration not stated)
5.4
Cc1ccc(Nc2nc(N3CCC(NC(=O)c4ccc(C(=O)O)cn4)C3)nc3c2COC3)cc1C (configuration not stated)
11.2

Here is the next item to consider.
Which IC50 value belongs to COc1cc(Nc2nc(N3CCC(NC(=O)c4ccc(C(=O)O)cn4)C3)nc3c2COC3)cc(OC)c1OC (configuration not stated) ?
31

Sourced from ChEMBL document CHEMBL4229503
